# TARGET_OF_ASSAY: Tubulin (Homo sapiens) (UniProt P68371+Q9H4B7+P0DPH7+P68366+Q13509+Q71U36+P04350+Q3ZCM7+P07437+P68363+Q9BQE3+Q6PEY2+Q13885+Q9BVA1+Q9BUF5)
# ASSAY_INFO: Binding affinity to microtubules, activity expressed as ID50 of compound/ID50 of paclitaxel
# Assay type: protein-complex assay
TEST_READOUT: ID50 ratio
Numbers only.

Known ID50 ratio results, listed for orientation:
{"columns": ["COMPOUND", "ID50 ratio"],
 "data": [
  ["CC(=O)O[C@H]1C(=O)[C@@]2(C)[C@H]([C@H](OC(=O)c3ccccc3)[C@]3(O)C[C@H](OC(=O)[C@H](O)[C@@H](NC(=O)c4ccccc4C)c4ccccc4)C(C)=C1C3(C)C)[C@]1(OC(C)=O)CO[C@@H]1C[C@@H]2O", 1.9],
  ["CC(=O)O[C@H]1C(=O)[C@@]2(C)[C@H]([C@H](OC(=O)c3ccccc3)[C@]3(O)C[C@H](OC(=O)[C@H](O)[C@@H](NC(=O)c4ccccc4)c4ccc(O)cc4)C(C)=C1C3(C)C)[C@]1(OC(C)=O)CO[C@@H]1C[C@@H]2O", 0.8],
  ["CC(=O)O[C@@]12CO[C@@H]1C[C@H](O)[C@@]1(C)C(=O)CC3=C(C)[C@@H](OC(=O)[C@H](O)[C@@H](NC(=O)c4ccccc4)c4ccccc4)C[C@@](O)([C@@H](OC(=O)c4ccccc4)[C@H]21)C3(C)C (stereo in doubt; 17)", 143],
  ["CC(=O)O[C@@H](C(=O)O[C@H]1C[C@@]2(O)[C@@H](OC(=O)c3ccccc3)[C@@H]3[C@]4(OC(C)=O)CO[C@@H]4C[C@H](O)[C@@]3(C)C(=O)[C@H](O)C(=C1C)C2(C)C)[C@@H](NC(=O)OC(C)(C)C)c1ccccc1", 10],
  ["CC(=O)O[C@H]1C(=O)[C@@]2(C)[C@H]([C@H](OC(=O)c3ccccc3)[C@]3(O)C[C@H](OC(=O)[C@H](O)[C@@H](NC(=O)c4c(F)c(F)c(N=[N+]=[N-])c(F)c4F)c4ccccc4)C(C)=C1C3(C)C)[C@]1(OC(C)=O)CO[C@@H]1C[C@@H]2O", 4.6],
  ["CC(=O)O[C@H]1C(=O)[C@@]2(C)[C@H]([C@H](OC(=O)c3ccccc3)[C@]3(O)C[C@H](OC(=O)[C@H](O)[C@@H](NC(=O)c4ccccc4)c4ccc(F)cc4)C(C)=C1C3(C)C)[C@]1(OC(C)=O)CO[C@@H]1C[C@@H]2O", 1.1],
  ["CC(=O)O[C@H]1C(=O)[C@]2(C)[C@@H](OC(=O)[C@H](O)[C@@H](O)[C@H](O)CO)C[C@H]3OC[C@@]3(OC(C)=O)[C@H]2[C@H](OC(=O)c2ccccc2)[C@]2(O)C[C@H](OC(=O)[C@H](O)[C@@H](NC(=O)c3ccccc3)c3ccccc3)C(C)=C1C2(C)C", 0.4],
  ["CC(=O)O[C@H]1C(=O)[C@@]2(C)[C@H]([C@H](OC(=O)c3ccccc3)[C@]3(O)C[C@H](OC(=O)[C@H](O)[C@@H](NC(=O)c4cccc(N(C)C)c4)c4ccccc4)C(C)=C1C3(C)C)[C@]1(OC(C)=O)CO[C@@H]1C[C@@H]2O", 1.4]
]}

Provide the reported ID50 ratio of each entry below, same order.
1. CC(=O)O[C@H]1C(=O)[C@@]2(C)[C@H]([C@H](OC(=O)c3ccccc3)[C@]3(O)C[C@H](OC(=O)[C@@H](NC(=O)OC(C)(C)C)[C@H](O)c4ccccc4)C(C)=C1C3(C)C)[C@]1(OC(C)=O)CO[C@@H]1C[C@@H]2O
2. CC(=O)O[C@@]12CO[C@@H]1C[C@H](O)[C@@]1(C)C(=O)[C@H](O)C3=C(C)[C@@H](OC(=O)[C@H](O)[C@@H](NC(=O)CCCC(=O)O)c4ccccc4)C[C@@](O)([C@@H](OC(=O)c4ccccc4)[C@H]21)C3(C)C
3. CC(=O)O[C@H]1C(=O)[C@@]2(C)[C@H]([C@H](OC(=O)c3ccccc3)[C@]3(O)C[C@H](OC(=O)[C@H](O)[C@@H](NC(=O)c4ccccc4)c4ccco4)C(C)=C1C3(C)C)[C@]1(OC(C)=O)CO[C@@H]1C[C@@H]2O

1. 108
2. 1
3. 0.9

Provide the reported ID50 ratio of each entry below, same order.
1. CC(=O)O[C@H]1C(=O)[C@@]2(C)[C@H]([C@H](OC(=O)c3ccccc3)[C@]3(O)C[C@H](OC(=O)[C@H](O)CNC(=O)c4ccccc4)C(C)=C1C3(C)C)[C@]1(OC(C)=O)CO[C@@H]1C[C@@H]2O
2. CC(=O)O[C@@]12CO[C@@H]1C[C@H](O)[C@@]1(C)C(=O)[C@H](O)C3=C(C)[C@@H](OC(=O)[C@@H](O)[C@H](NC(=O)OC(C)(C)C)c4ccccc4)C[C@@](O)([C@@H](OC(=O)c4ccccc4)[C@H]21)C3(C)C

[5.6, 30]

Provide the reported ID50 ratio of each entry below, same order.
1. CCCCCC(=O)N[C@@H](c1ccccc1)[C@@H](O)C(=O)O[C@H]1C[C@@]2(O)[C@@H](OC(=O)c3ccccc3)[C@@H]3[C@]4(OC(C)=O)CO[C@@H]4C[C@H](O)[C@@]3(C)C(=O)[C@H](OC(C)=O)C(=C1C)C2(C)C
2. CC(=O)O[C@H]1C(=O)[C@@]2(C)[C@H]([C@H](OC(=O)c3ccccc3)[C@]3(O)C[C@H](OC(=O)[C@@H](O)[C@H](NC(=O)c4ccccc4)c4ccccc4)C(C)=C1C3(C)C)[C@]1(OC(C)=O)CO[C@@H]1C[C@@H]2O

[0.4, 4.5]

Data credit: ChEMBL document CHEMBL1127973
